Ref: patent US8940909B2

# Test system: Salmonella bongori 81
# Test: IO staining of colonies of beta-D-galactosidase positive/negative bacteria (Table IVb)
# Format: cell-based
# Experimental Conditions: Salmonella bongori strain 81, b-gal +; 24 h on Nutrient Agar, 150 mg/l indicator, 100 mg/l IPTG
Metric Name: F: Fluorescence of colonies

CC(=O)c1ccccc1-n1cc(O[C@@H]2O[C@H](CO)[C@H](O)[C@H](O)[C@H]2O)c2ccc(Cl)cc21 [Indicator I16a] : +/−
O=C(c1ccccc1)c1ccccc1-n1cc(O[C@@H]2O[C@H](CO)[C@H](O)[C@H](O)[C@H]2O)c2c(Cl)c(Br)ccc21 [Indicator I22a] : −
COc1ccc(C(=O)c2ccccc2-n2cc(O[C@@H]3O[C@H](CO)[C@H](O)[C@H](O)[C@H]3O)c3c(Cl)c(Br)ccc32)c(OC)c1 [Indicator I28a] : −
COc1ccc(C(=O)c2ccccc2-n2cc(O[C@@H]3O[C@H](CO)[C@H](O)[C@H](O)[C@H]3O)c3ccc(Cl)cc32)c(OC)c1 [Indicator I27a] : +/−

Short answer for O=C(c1ccccc1)c1ccccc1-n1cc(O[C@@H]2O[C@H](CO)[C@H](O)[C@H](O)[C@H]2O)c2ccc(Cl)cc21 [Indicator I21a] : F: Fluorescence of colonies was +/−

Short answer for COc1ccc(C(=O)c2ccccc2-n2cc(O[C@@H]3O[C@H](CO)[C@H](O)[C@H](O)[C@H]3O)c3ccccc32)c(OC)c1 [Indicator I25a] : F: Fluorescence of colonies was +/−

Short answer for Cn1cccc1C(=O)c1ccccc1-n1cc(O[C@@H]2O[C@H](CO)[C@H](O)[C@H](O)[C@H]2O)c2ccc(Cl)cc21 [Indicator I31a] : F: Fluorescence of colonies was −
